Data provenance: PubChem BioAssay (NCI)

TGI overview
- Test system: U251 CNS
- TEST_DESCRIPTION: NCI tumour cell line growth inhibition, 48 h

NNc1[nH]c(=S)[nH]c1C(N)=O | > 100 µM
COc1cccc2[nH]c(-c3ccccn3)nc12 | > 100 µM

Consider now this further compound.
Ask: What value of TGI has been recorded for this entry: `O=C(O)C12CCCC(CCC1)C2`
Result: > 100 µM

###

- Tested on: DU-145 prostate
- TEST_DESCRIPTION: NCI tumour cell line growth inhibition, 48 h
Overview of recorded TGI for various molecules

CCCSC1=NC2C(N(CC)C(=O)N2CC)N1/N=C/C=C/c1ccccc1[N+](=O)[O-] (stereo not drawn) | > 100 µM

Ask: I have this molecule here, `COC(=O)[C@@H]1C[C@@H]2c3ccccc3N(S(=O)(=O)c3ccccc3)[C@@H]2N1C(=O)OC` , and I need its recorded TGI.
Result: > 100 µM

Ask: Give the measured TGI of CNC1C(O)C(OC2C(N)CC(N)C(OC3OC(C(C)O)C(O)C(O)C3N)C2O)OCC1(C)O (stereo not drawn) .
Result: > 100 µM

###

Entries annotated with measured TGI
- Tested on: U251 CNS
- TEST_DESCRIPTION: NCI tumour cell line growth inhibition, 48 h

Consider the following illustrative entries.
[N-]=[N+]=NC(CBr)c1cn([C@H]2C[C@H](O)[C@@H](CO)O2)c(=O)[nH]c1=O (some centres undefined) | > 100 µM
COc1ccc(Cc2nccc3cc(OC)c(OC)cc23)cc1OC | > 100 µM
COC(=O)C(Cc1nc2ccc(Cl)cc2[nH]c1=O)/C(=N/NC(N)=O)C(=O)Nc1ccc(Cl)cc1 (centres undefined) | > 100 µM
COc1ccc(-c2cc(-c3cc(OC)c(OC)c(OC)c3)c(C#N)c(N3CCOCC3)n2)cc1O | > 94.1 µM
C=C1CN(Cc2ccccc2)[C@@H]2CCCCC[C@H](C#N)[C@H]12 | > 100 µM

Ask: Would you kindly share the measured TGI for N#CC1(C=O)c2ccccc2C=CN1C(=O)c1ccccc1 (centres undefined) ?
Result: > 100 µM

Ask: Quick one: TGI of `CCCCC(=O)Oc1ccc2c(C)cc(=O)oc2c1` ?
Result: > 100 µM

Ask: Entry `CS(=O)(=O)CCNCc1ccc(-c2ccc3ncnc(Nc4ccc(OCc5ccccc5)c(Cl)c4)c3c2)o1` : reported TGI = ?
Result: > 15.8 µM

###

- Tested on: SNB-75 CNS
- TEST_DESCRIPTION: NCI tumour cell line growth inhibition, 48 h
Reported TGI values for a set of molecules

Below, 10 molecules whose answers are already recorded.
Cc1ccc(S(=O)(=O)N2CCCC2C(=O)O[C@H]2CC[C@H]3CC=C[C@H]32)cc1 (some centres not stated) | > 100 µM
N#CCCN(CCN(C(=O)Nc1ccccc1)c1ccccc1)C(=O)Nc1ccccc1 | > 100 µM
CC(=O)Nc1ccc(C(=O)NN2C(=O)C(Cl)C2c2ccccc2O)cc1 (configuration not stated) | 78.9 µM
CCOC(=O)C1=C(C)N(NC(N)=O)C2(O)CCCC(=O)C12C (configuration not stated) | > 100 µM
CN(C[C@@H]1COCCO1)S(=O)(=O)Nc1ccc2ccc3ncc(-c4cnn(C)c4)cc3c(=O)c2c1 | > 27.4 µM
COc1cccc2[nH]c(-c3ccccn3)nc12 | > 100 µM
C=CCN(C)CN(C)c1nc(N(C)C)nc(N(C)C)n1 | > 100 µM
Cn1c(=S)c2[nH]c(SCCN3CCCC3)nc2n(C)c1=O | > 100 µM
O=C(Oc1ccccc1Cl)c1ccccc1Nc1ccnc(C(F)(F)F)c1 | 27 µM
CC(C)NCCC(O)c1cc2ccccc2o1 (configuration not stated) | > 100 µM

Ask: Look up TGI for this molecule: `C/C(Cc1ccc(Cl)cc1)=C(/c1ccc(Cl)cc1)c1ccc(OCCN(C)C)cc1`
Result: 7.93 µM

Ask: // query TGI value for entry `CCOC(=O)Nc1ccc(-c2nc(-c3cccc(OC)c3)c(-c3ccnc(Br)c3)[nH]2)cc1`
Result: > 100 µM
